Target: Vasopressin V2 receptor (Homo sapiens, UniProt P30518)
Sequence (P30518 whole entry): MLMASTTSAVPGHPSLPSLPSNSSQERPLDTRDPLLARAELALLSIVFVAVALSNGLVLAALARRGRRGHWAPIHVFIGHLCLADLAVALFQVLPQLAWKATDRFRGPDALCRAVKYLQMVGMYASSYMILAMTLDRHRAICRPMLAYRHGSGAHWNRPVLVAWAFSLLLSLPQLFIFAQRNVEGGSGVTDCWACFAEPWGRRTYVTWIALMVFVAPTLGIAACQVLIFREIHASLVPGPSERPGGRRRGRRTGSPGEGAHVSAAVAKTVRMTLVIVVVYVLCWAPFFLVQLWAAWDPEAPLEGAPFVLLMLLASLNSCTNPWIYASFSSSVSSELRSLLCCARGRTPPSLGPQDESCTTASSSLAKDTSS
Experiment: Inhibition of [3H]AVP binding to human Vasopressin V2 receptor expressed in HeLa cells
Assay type: cell-based
Class boundaries, taken from values of IC50, are as follows: low interval (below 9 nM), middle interval (9 nM to below 100 nM), high interval (100 nM or more)

smiles=CCCCNc1ccc(C(=O)N2CCCCc3ccccc32)c(Cl)c1 target="Vasopressin V2 receptor (Homo sapiens, UniProt P30518)" class="middle interval"
smiles=O=C(c1ccc(N2CCCC2)cc1)N1CCCCc2cc(Cl)ccc21 target="Vasopressin V2 receptor (Homo sapiens, UniProt P30518)" class="high interval"
smiles=O=C(c1ccc(-n2cccc2)cc1Cl)N1CCCCc2ccccc21 target="Vasopressin V2 receptor (Homo sapiens, UniProt P30518)" class="low interval"
smiles=O=C(c1ccc(N2CCCCC2)cc1Cl)N1CCCCc2ccccc21 target="Vasopressin V2 receptor (Homo sapiens, UniProt P30518)" class="high interval"
smiles=CN(C)c1ccc(C(=O)N2CCCCc3ccccc32)c(Cl)c1 target="Vasopressin V2 receptor (Homo sapiens, UniProt P30518)" class="middle interval"
smiles=Cc1cc(N)ccc1C(=O)N1CCCCc2cc(Cl)ccc21 target="Vasopressin V2 receptor (Homo sapiens, UniProt P30518)" class="low interval"
smiles=CCNc1ccc(C(=O)N2CCCCc3ccccc32)c(Cl)c1 target="Vasopressin V2 receptor (Homo sapiens, UniProt P30518)" class="middle interval"
smiles=O=C(c1ccc(N2CCCC2)cc1)N1CCCCc2ccccc21 target="Vasopressin V2 receptor (Homo sapiens, UniProt P30518)" class="high interval"
smiles=Nc1ccc(C(=O)N2CCCCc3ccccc32)cc1 target="Vasopressin V2 receptor (Homo sapiens, UniProt P30518)" class="high interval"
smiles=CCNc1ccc(C(=O)N2CCCCc3cc(Cl)ccc32)c(Cl)c1 target="Vasopressin V2 receptor (Homo sapiens, UniProt P30518)" class="low interval"
